Reference for the values: PubChem BioAssay AID1996

// solubility kinetic lookup, one value per entry
Details: buffer; pH 7.4; 200.0 µM

Solved entries:
# compound, solubility kinetic
measured = [
    ("CCOC(=O)C1CCCN(Cc2ccc(-c3ccccc3)cc2)C1 (stereo unspecified)", "11.9 µg/mL"),
    ("Cc1ccc(NS(=O)(=O)c2cccc(C(=O)N3CCCCC3)c2)cc1", "> 53.8 µg/mL"),
    ("Cc1ccc(C(O)c2nc3ccccc3n2C)cc1 (stereo unspecified)", "> 37.8 µg/mL"),
    ("CN1C(=O)NC(c2ccc(O)cc2)C2=C1CN(c1ccc(O)cc1)C2=O (stereo unspecified)", "> 52.7 µg/mL"),
    ("CC(CN1CCCC1)OC(=O)c1ccccc1Cl.Cl (stereo unspecified)", "> 45.6 µg/mL"),
]

Request: Answer with the recorded solubility kinetic for the compound listed here: `CCN(CC)c1ccc(NC(=O)C2CCCC2)cc1`
Result: 35.4 µg/mL

* * *

Quick list: solubility kinetic per entry.
Settings: buffer; pH 7.4; 200.0 µM

Completed entries (count: 6):
# molecule, solubility kinetic
records = [
    ("Cc1cc[n+](Cc2ccc([N+](=O)[O-])cc2)cc1.[Br-]", "> 46.4 µg/mL"),
    ("Cc1ccccc1CN1CCc2cc([N+](=O)[O-])ccc21", "1.9 µg/mL"),
    ("CC(NC(=O)c1ccco1)C12CC3CC(CC(C3)C1)C2 (stereo unspecified)", "> 41 µg/mL"),
    ("COc1ccc(OCCC(=O)OCC(=O)NCCC2=CCCCC2)cc1", "> 54.2 µg/mL"),
    ("O=C(Nc1ccc2c(c1)COC2=O)c1ccc(Cl)c(Cl)c1", "3.5 µg/mL"),
    ("COc1ccc(NC(=S)N2CCCC2)c(OC)c1", "> 40 µg/mL"),
]

Request: Give the value of solubility kinetic reported for the following: `CC1=CSC2=NS(=O)(=O)CCN12`
Result: > 30.6 µg/mL

Request: Supply measured solubility kinetic of `Oc1ccc(Cl)cc1C=Nc1ccc2c3c(cccc13)CC2` in your reply.
Result: > 46.2 µg/mL

Request: Assign solubility kinetic to the following record: COc1ccc(CCN2CC(C(=O)NCC(c3ccccc3)N(C)C)CC2=O)cc1OC (stereo unspecified)
Result: > 65.9 µg/mL

Request: Supply recorded solubility kinetic for `Cc1cc(NS(=O)(=O)c2ccc(NC(=O)CNS(=O)(=O)c3ccccc3)cc2)nc(C)n1` here.
Result: 67.3 µg/mL

Request: Indicate the recorded solubility kinetic value for this molecule: `CCOC(=O)N1CCN(C/C(Cl)=C/c2ccccc2)CC1`
Result: 29.8 µg/mL

* * *

Settings: buffer; pH 7.4; 200.0 µM
Quick list: solubility kinetic per entry.
Quick reminder: number only, in µg/mL, skip the unit.

# smiles, experimental readout, measure unit, value observed
records = [
    ("CCCc1cc(=O)c2ccc(OC/C(C)=N/O)cc2o1", "solubility kinetic", "µg/mL", 38.3),
    ("Cc1ccc(/C(N)=N/OC(=O)CCCc2ccccc2)cc1", "solubility kinetic", "µg/mL", 2),
    ("COc1cc(CN2CCCCCC2)cc([N+](=O)[O-])c1O", "solubility kinetic", "µg/mL", 35.6),
]

From here, focus on the item given below.
Request: Complete the entry with solubility kinetic for `Cc1cc(C)cc(C(=O)NCc2ccc3c(c2)OCO3)c1`
Result: 5.8
